Measured values drawn from ChEMBL document CHEMBL1153326 for this set.

# Tested on: Nucleic Acid
# assay.remarks: Binding affinity to human telomeric DNA G-quadruplex assessed as change in melting temperature at 0.5 uM by fluorescein-rhodamine based FRET assay
# Type: nucleic-acid assay
reported.property: ΔTm (°C)
Answers are plain numbers, in °C.

Guide cases for ΔTm, answers given:
- smiles.notation: "O=C(NCCN1CCCC1)c1c[nH]c2c(ccc3ccccc32)c1=O"
  ΔTm (°C): 4.36
- smiles.notation: "O=C(NCCN1CCCCC1)c1c[nH]c2c(ccc3ccccc32)c1=O"
  ΔTm (°C): 5.17
- smiles.notation: "CN1CCN(CCNC(=O)c2c[nH]c3c(ccc4ccccc43)c2=O)CC1"
  ΔTm (°C): 3.69
- smiles.notation: "O=C(NCCN1CCCC1)c1cc(=O)c2ccc3ccccc3c2[nH]1"
  ΔTm (°C): 1.35
- smiles.notation: "O=C(Nc1ccncc1)c1c[nH]c2c(ccc3ccccc32)c1=O"
  ΔTm (°C): 5.29
- smiles.notation: "O=C(NCCN1CCNCC1)c1cc(=O)c2ccc3ccccc3c2[nH]1"
  ΔTm (°C): 1.27
- smiles.notation: "O=C(NCCN1CCNCC1)c1c[nH]c2c(ccc3ccccc32)c1=O"
  ΔTm (°C): 1.19
- smiles.notation: "O=C(Nc1ccccc1)c1c[nH]c2c(ccc3ccccc32)c1=O"
  ΔTm (°C): 1.05

Each molecule below has a reported value. Please supply its ΔTm.
1. O=C(NCCN1CCCCC1)c1cc(=O)c2ccc3ccccc3c2[nH]1
2. CN(C)c1ccc(NC(=O)c2c[nH]c3c(ccc4ccccc43)c2=O)cc1
3. CN(C)c1ccc(NC(=O)c2cc(=O)c3ccc4ccccc4c3[nH]2)cc1
4. O=C(Nc1ccncc1)c1cc(=O)c2ccc3ccccc3c2[nH]1

Reply:
1
0.19
0.41
0.69
